The measurements presented in this section are drawn from paper PMC2570929.

- Test system: poliovirus Sabin strain 2 (PV2)
- assay method text: microbe, parasite or virus in culture
- Type: cell-based
- condition description: Enterovirus C, HeLa, 72 h, read-out: EC50 PV2
pEC50: −log10 of the molar value.
Could you label it yes if measured pEC50 is 5 or higher, and no otherwise?

OC(c1ccccc1)c1nc2ccccc2[nH]1 (stereo not drawn) [HBB, 2-(α-hydroxybenzyl)-benzimidazole]: no
CC(C)S(=O)(=O)n1c(N)nc2ccc(/C(=N/O)c3ccccc3)cc21 [Enviroxime]: yes
N=c1ccn(Cc2nc3ccccc3n2-c2ccc(F)cc2)cc1 [MRL-1237]: yes
N#Cc1cc([N+](=O)[O-])ccc1Oc1ccc(Cl)c(Cl)c1 [MDL-860]: yes
C[C@@]1(O)[C@H](O)[C@@H](CO)O[C@H]1n1ccc(N)nc1=O [2'-C-methylcytidine, 2′-C-methylcytidine]: no
C[C@@]1(O)[C@H](O)[C@@H](CO)O[C@H]1n1cnc2c(N)ncnc21 [2'-C-methyladenosine, 2′-C-methyladenosine]: yes
[N-]=[N+]=N[C@]1(CO)O[C@@H](n2ccc(N)nc2=O)[C@H](O)[C@@H]1O [4’-azidocytidine, 4′-azidocytidine]: no

Proceed to the following item.
I'd appreciate it if you could say whether Cc1cc(CCCOc2c(C)cc(-c3noc(C(F)(F)F)n3)cc2C)on1 [Pleconaril] has pEC50 at least equal to 5.
yes
